Where these numbers come from: PubChem BioAssay (NCI)

Test system: SNB-19 CNS
Experiment: NCI tumour cell line growth inhibition, 48 h; in the data active = GI50 below about 0.43 µM; inactive = the rest
Outcomes: yes (1) (active), no (0) (inactive)

>>> label_class("COc1cc2c3c(n(C)c(=O)c2cc1OC)-c1cc2c(cc1/C3=C\\CCCCCN)OCO2")
"no (0)"
>>> label_class("CN1CC[C@@H](c2c(O)cc(O)c3c(=O)cc(-c4ccccc4Cl)oc23)[C@@H](O)C1")
"yes (1)"
>>> label_class("COc1cc(C2CC(c3ccc(C)cc3)=NN2C=O)ccc1Oc1ccnc2cc(Cl)ccc12 (stereo not given)")
"no (0)"
>>> label_class("C=C1C(=O)O[C@H]2[C@H]1CC/C(COC(=O)c1cc3cc(F)ccc3[nH]1)=C\\CC[C@@]1(C)O[C@@H]21")
"no (0)"
>>> label_class("CN(C)c1cccc2c(S(=O)(=O)N[C@H]3CC[C@H]4[C@@H]5CCc6cc(O)ccc6[C@H]5CC[C@]34C)cccc12")
"no (0)"
>>> label_class("COc1ccc(N=C2CSc3nnc(-c4cc(F)c(Cl)cc4Cl)n3N2)cc1")
"no (0)"
>>> label_class("Cc1ccc2[nH]cc(-c3nc(-c4c[nH]c5ncccc45)cs3)c2c1")
"no (0)"
>>> label_class("CNC(=O)c1cc(OC2CCC(NC(=O)Nc3ccc(Cl)c(C(F)(F)F)c3)CC2)ccn1 (stereo not given)")
"no (0)"
>>> label_class("N#Cc1c(Sc2ccccc2N)cccc1Sc1ccccc1N")
"no (0)"
>>> label_class("ClCc1cccc(Cn2cnc3c(Cl)ncnc32)c1")
"no (0)"

----------
Listed molecules paired with reported TGI
Tested on: M14 melanoma
Test: NCI tumour cell line growth inhibition, 48 h
Measure: TGI

>>> result("C=CC[C@H]1[C@@H](O[Si](C)(C)C(C)(C)C)[C@H](n2ccc(=O)[nH]c2=O)O[C@@H]1CO[Si](C)(C)C(C)(C)C")
"3.23 µM"
>>> result("CCOC(=O)[C@@]1(C)C=C2O[C@@H]3OC4(CCCCC4)O[C@@H]3C2=C2C(O)=CC=C(O)[C@]21C(=O)OC")
"> 68 µM"
>>> result("COc1cc(OC)c2c(O)cc(CC(C)O)cc2c1 (stereo not given)")
"> 100 µM"
>>> result("COc1ccc(-c2nc3sc(C)cn3c2/C=C/C(=O)c2cc(OC)c(OC)c(OC)c2)cc1")
"> 100 µM"
>>> result("Cc1nc2ccc(S(=O)(=O)Nc3ccc(Cl)cc3)cc2c(=O)n1NC(=O)CNc1ccc(Cl)cc1")
"> 100 µM"
>>> result("Cc1ccc(S(=O)(=O)N/C(=C\\C=C\\c2ccccc2)C(=O)C(C)(C)C)cc1")
"> 100 µM"
>>> result("Cc1ncc(CN=Cc2ccc(Cl)cc2)c(N)n1")
"> 100 µM"
>>> result("O=C(O)CSc1n[nH]c(-c2ccc(O)cc2)n1")
"> 100 µM"
>>> result("CC(=O)NNc1nc(C)c(C(/C=C/c2ccc3c(c2)OCO3)=N/Nc2ccccc2)s1")
"> 100 µM"
>>> result("COc1ccc2[nH]c3c(c2c1)CCN(C)CC3")
"> 100 µM"

----------
Test system: SF-295 CNS
Test: NCI tumour cell line growth inhibition, 48 h
Where a SMILES comes first, the peptide text is derived from it. [ ]: non-standard residue; d: D form. The star is where a group is joined. ξ: configuration not given here. ξF = NC(Cc1ccccc1)C(=O)O; Cbz = O=C(OCc1ccccc1)*; Aib = CC(C)(N)C(=O)O
Measure: TGI

>>> result("Cn1c2c(c3ccccc31)CCN(CCCCN1CCc3c(n(C)c4ccccc34)C1=O)C2")
"> 100 µM"
>>> result("COc1cc(/C(C#N)=C/c2ccc3c(c2OC)OCO3)cc2c1OCO2")
"4.36 µM"
>>> result("CCN(CC)Cc1nc2sc3c(c2c(=O)n1-c1ccccc1)CCCC3")
"66.3 µM"
>>> result("Cn1ccnc1Sc1ccc(/C=N/NC(=O)c2ccccc2O)cc1[N+](=O)[O-]")
"> 100 µM"
>>> result("N#CCC(=O)Nc1cccc(C(F)(F)F)c1")
"> 100 µM"
>>> result("CC(=O)O/C=C\\OC1CCCC1(c1ccccc1)c1ccccc1 (stereo not given)")
"23 µM"
>>> result("Cc1nc2ccc(S(=O)(=O)Nc3ccc(Cl)cc3)cc2c(=O)n1NC(=O)CNc1ccc(Cl)cc1")
"> 100 µM"
>>> result("Cc1c(C)c(C)c(-n2[nH]c(=O)n(C)c2=O)c(C)c1C")
"> 100 µM"
>>> result("Cc1ccc([N+](=O)[O-])cc1S(=O)(=O)Nc1ccc(C2=NN(c3ccc([N+](=O)[O-])cc3[N+](=O)[O-])C(c3ccccc3)C2)cc1 (stereo not given)")
"35.9 µM"
>>> result("NCCC(N)C(=O)O (stereo not given)")
"> 100 µM"
>>> result("CC(C)(CO)CNc1cc(=O)[nH]c(N)n1")
"> 100 µM"
>>> result("CCOC(=O)[C@@]1(C)C=C2O[C@@H]3OC4(CCCCC4)O[C@@H]3C2=C2C(O)=CC=C(O)[C@]21C(=O)OC")
"> 68 µM"
>>> result("O=P(O)(CCP(=O)(O)c1ccccc1)c1ccccc1")
"> 100 µM"
>>> result("CC[C@H](C)N(CCN)C(=O)c1cc2ccccc2c(-c2ccccc2Cl)n1")
"28.4 µM"
>>> result("COC(=O)c1cc(C)ccc1CC(Cc1cccc(C)c1)C(=O)OC (stereo not given)")
"> 100 µM"
>>> result("CCc1cccc(C(C)C)c1NC(=O)C(=O)C(Cc1nc2ccccc2[nH]c1=O)C(=O)OC (stereo not given)")
"> 100 µM"
>>> result("C=CC[C@H]1[C@@H](O[Si](C)(C)C(C)(C)C)[C@H](n2ccc(=O)[nH]c2=O)O[C@@H]1CO[Si](C)(C)C(C)(C)C")
"3.93 µM"
>>> result("COC(=O)CCCc1ccc2c(c1)CC1(C2)Cc2cc3c(cc2C1)CCCC3")
"> 100 µM"
>>> result("COc1ccc2cc(C(=O)/C=C/c3cc(OC)c(OC)c(OC)c3)ccc2c1")
"> 50 µM"
>>> result("CC(C)(NC(=O)OCc1ccccc1)C(=O)NC(Cc1ccccc1)C(=O)O (stereo not given) (Cbz-[Aib]-[ξF]-OH)")
"> 100 µM"
